Recorded growth, one value per entry.
- System: SK-OV-3 ovarian
- experimental-details: NCI-60 one-dose screen, 48 h (100 = growth as untreated, 0 = no growth, -100 = all killed)
- run-conditions: 10 µM unless noted
Compounds without any hit were thinned out: in the full panel of roughly 83,000, 20% have a hit.
experimental-readout: growth (%)

• O=Cc1cc2ccccc2nc1Oc1ccc(C(F)(F)F)cc1 = 81.5
• O=C(CCN1CCCC1)Nc1ccc2c(NCCCCc3ccccc3)c3ccccc3nc2c1 = 53.9
• O=C(c1nc2ccccc2[nH]1)C1C(c2ccc(Cl)cc2)C2CC3CCCC[C@H]3N2[C@@]12C(=O)Nc1cc(Cl)ccc12 (some centres undefined) = 71.4
• O=[N+]([O-])c1cc(Br)c2cccc3c2c1CC3 = 114
